Reference for the values: patent US20160242416A1

# reported Test G rating (% disease control); entries follow
# Test system: Erysiphe graminis f sp. tritici
# METHOD_DESCRIPTION: Test G: wheat powdery mildew, preventive spray on wheat seedlings
# TEST_CONDITIONS: 10 ppm; wheat powdery mildew; 100 = 100% disease control, 0 = no control
READOUT_TYPE: Test G rating (% disease control) (%)

[[record]]
compound = "OC(Cn1cncn1)(C1=NOC(Cc2ccc(Cl)cc2)C1)c1ccc(Cl)cc1 (single isomer, unassigned) [Compound 201]"
result_units = "%"
val = 96

[[record]]
compound = "CC(C)(C)C(O)(Cn1cncn1)C1=NOC(COC2CCCCC2)C1 (single isomer, unassigned) [Compound 92]"
result_units = "%"
val = 13

[[record]]
compound = "CCCC(O)(Cn1cncn1)C1=NOC(c2ccc(Cl)cc2)C1 (single isomer, unassigned) [Compound 82]"
result_units = "%"
val = 100

[[record]]
compound = "CC(C)(C)C(O)(Cn1cncn1)C1=NOC(COCc2ccccc2)C1 (single isomer, unassigned) [Compound 59]"
result_units = "%"
val = 89

[[record]]
compound = "CC(C)(C)C(O)(Cn1cncn1)C1=NOC(Cn2cc(Br)cn2)C1 (single isomer, unassigned) [Compound 42]"
result_units = "%"
val = 0

[[record]]
compound = "OC(Cn1cncn1)(C1=NOC(c2ccc(Cl)cc2)C1)c1ccc(F)cc1 (single isomer, unassigned) [Compound 160]"
result_units = "%"
val = 100

[[record]]
compound = "CC(C)(C)C(O)(Cn1cncn1)C1=NOC(COc2ccc(OCc3ccccc3)cc2)C1 (single isomer, unassigned) [Compound 72]"
result_units = "%"
val = 56

[[record]]
compound = "CC(C)(C)C(O)(Cn1cncn1)C1=NOC(COc2ccc(-n3cccn3)cc2)C1 (single isomer, unassigned) [Compound 29]"
result_units = "%"
val = 99


* * *

# reported Test G disease control rating; entries follow
# System: Erysiphe graminis f sp. tritici
# METHOD_DESCRIPTION: Test G: wheat powdery mildew, preventive spray on wheat seedlings
# TEST_CONDITIONS: 10 ppm test solution; 100 = 100% disease control, 0 = no control relative to controls
READOUT_TYPE: Test G disease control rating (%)

[[record]]
molecule = "OC(Cn1cncn1)(C1=NOC2c3ccccc3CCC12)c1ccc(Cl)cc1 (stereo not drawn) [Compound 222]"
val = 99

[[record]]
molecule = "CC(C)(C)C(O)(Cn1cncn1)C1=NOC(COc2cccc(Br)c2)C1 (single isomer, unassigned) [Compound 232]"
val = 100

[[record]]
molecule = "OC(Cn1cncn1)(C1=NOC(COc2ccc(Cl)cc2)C1)C1(Cl)CC1 (single isomer, unassigned) [Compound 251]"
val = 100


* * *

# reported Test G rating (% disease control); entries follow
# System: Erysiphe graminis f sp. tritici
# METHOD_DESCRIPTION: Test G: wheat powdery mildew, preventive spray on wheat seedlings
# TEST_CONDITIONS: 10 ppm; wheat powdery mildew; 100 = 100% disease control, 0 = no control
READOUT_TYPE: Test G rating (% disease control) (%)

[[record]]
molecule = "OC(Cn1cncn1)(C1=NOC(COc2ccc(F)cc2)C1)c1ccc(Cl)cc1 (single isomer, unassigned) [Compound 163]"
result_units = "%"
val = 86

[[record]]
molecule = "CC(C)(C)C(O)(Cn1cncn1)C1=NOC(CSc2ccc(Cl)cc2)C1 (single isomer, unassigned) [Compound 26]"
result_units = "%"
val = 89

[[record]]
molecule = "OC(Cn1cncn1)(C1=NOC(COc2ccc(Cl)cn2)C1)c1ccc(Cl)cc1 (single isomer, unassigned) [Compound 165]"
result_units = "%"
val = 100

[[record]]
molecule = "CC(C)(C)C(O)(Cn1cncn1)C1=NOC(COc2ccc(Cl)nc2)C1 (single isomer, unassigned) [Compound 98]"
result_units = "%"
val = 55

[[record]]
molecule = "CCC(C)(C)C(O)(Cn1cncn1)C1=NOC(Cc2ccc(Cl)cc2)C1 (single isomer, unassigned) [Compound 17]"
result_units = "%"
val = 100

[[record]]
molecule = "CC(C)(C)C(O)(Cn1cncn1)C1=NOC(COc2ccc(F)cc2F)C1 (single isomer, unassigned)"
result_units = "%"
val = 99

[[record]]
molecule = "CC(C)(C)C(O)(Cn1cncn1)C1=NOC(COc2ccc(OC(F)(F)F)cc2)C1 (single isomer, unassigned) [Compound 24]"
result_units = "%"
val = 100

[[record]]
molecule = "CC(C)(C)C(O)(Cn1cncn1)C1=NOC(COc2ccc(F)cc2)C1 (single isomer, unassigned) [Compound 80]"
result_units = "%"
val = 99

[[record]]
molecule = "OC(Cn1cncn1)(C1=NOC(c2ccc(C(F)(F)F)cc2)C1)c1ccc(C(F)(F)F)cc1 (single isomer, unassigned) [Compound 153]"
result_units = "%"
val = 100

[[record]]
molecule = "CC(C)(C)C(O)(Cn1cncn1)C1=NOC(COc2ccc3c(c2)OCO3)C1 (single isomer, unassigned) [Compound 45]"
result_units = "%"
val = 87

[[record]]
molecule = "CC(C)(C)C(O)(Cn1cncn1)C1=NOC(c2cnccn2)C1 (single isomer, unassigned) [Compound 169]"
result_units = "%"
val = 0

[[record]]
molecule = "CCC(C)(C)C(O)(Cn1cncn1)C1=NOC(COc2ccc(Br)cc2)C1 (single isomer, unassigned) [Compound 11]"
result_units = "%"
val = 99

[[record]]
molecule = "OC(Cn1cncn1)(C1=NOC(COC2CCCCC2)C1)c1ccc(Cl)cc1 (single isomer, unassigned) [Compound 89]"
result_units = "%"
val = 76

[[record]]
molecule = "CC(C)(C)C(O)(Cn1cncn1)C1=NOC(Cn2ccc(C(F)(F)F)n2)C1 (single isomer, unassigned) [Compound 49]"
result_units = "%"
val = 99

[[record]]
molecule = "OC(Cn1cncn1)(C1=NOC(c2ccc(-n3ccc(C(F)(F)F)n3)cc2)C1)c1ccc(Cl)cc1 (single isomer, unassigned) [Compound 148]"
result_units = "%"
val = 100

[[record]]
molecule = "CC(C)(C)C(O)(Cn1cncn1)C1=NOC(CCc2ccc(C(F)(F)F)cc2)C1 (single isomer, unassigned) [Compound 14]"
result_units = "%"
val = 99

